B1: Twister Ribozyme (parent)
chain: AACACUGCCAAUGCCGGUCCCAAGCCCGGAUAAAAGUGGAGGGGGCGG

Variants of: B1
experiment_notes: self-cleavage, relative activity (ratio to wild type); higher = more cleavage; co-transcriptional
# binarize self-cleavage: threshold 0.8 inclusive, high side class 1, low side class 0

Does the reported self-cleavage for GACACUGCCAACGCCGGUCCCAAGCCCGGAUAAAAGUGGAGGGGGCGG [A1G U12C] fall at or above the 0.8 mark?
class 0

Test whether the variant AACACUGCCAAUGCCGGUGCCAAGCCCGGAUAAAAGCGGAGGGGGCGG [C19G U37C] records self-cleavage of 0.8 or higher.
class 0

Decide: is the reported value of self-cleavage for AACACUGCCAAUACCGGUCCCAAGCCCGGAUAAAAUUGGAGGGGGCGG [G13A G36U] equal to or greater than 0.8?
class 0

Is self-cleavage at least 0.8? Consider AACACUGGCAAUGCCGGUCUCAAGCCCGGAUAAAAGUGGAGGGGGCGG [C8G C20U]
class 0

Confirm if self-cleavage reported for the variant AACACUGCCAAUGCCGGUCCCAAGCCCGGAUAGACGUGGAGGGGGCGG [A33G A35C] is 0.8 or above.
class 1

Does AACACUGCCAAUGCCGGUCCCAAGCCCGGAUAAAAGUGGAGGGUGCAG [G44U G47A] have a reported self-cleavage of at least 0.8?
class 0

I'd appreciate it if you could say whether AACACUACCAAUGACGGUCCCAAGCCCGGAUAAAAGUGGAGGGGGCGG [G7A C14A] has self-cleavage at least equal to 0.8.
class 0

Entry AACACUGCCAAAGCCGGUCCCAAGCCCGGAUCAAAGUGGAGGGGGCGG [U12A A32C] : is its self-cleavage no less than 0.8?
class 1

State whether the measured self-cleavage reaches 0.8, counting equality as reaching it, for AACACCGCCAAUGCCUGUCCCAAGCCCGGAUAAAAGUGGAGGGGGCGG [U6C G16U]
class 0

Item AACACUGCCAAUGCCGGUCCCAAGCCCGGAUAAAAGCGGAGGGGACGG [U37C G45A] with self-cleavage of 0.8 or above?
class 0
